Biological target: T1, human CD11a (human) (UniProt P20701)
T1 sequence (looked up): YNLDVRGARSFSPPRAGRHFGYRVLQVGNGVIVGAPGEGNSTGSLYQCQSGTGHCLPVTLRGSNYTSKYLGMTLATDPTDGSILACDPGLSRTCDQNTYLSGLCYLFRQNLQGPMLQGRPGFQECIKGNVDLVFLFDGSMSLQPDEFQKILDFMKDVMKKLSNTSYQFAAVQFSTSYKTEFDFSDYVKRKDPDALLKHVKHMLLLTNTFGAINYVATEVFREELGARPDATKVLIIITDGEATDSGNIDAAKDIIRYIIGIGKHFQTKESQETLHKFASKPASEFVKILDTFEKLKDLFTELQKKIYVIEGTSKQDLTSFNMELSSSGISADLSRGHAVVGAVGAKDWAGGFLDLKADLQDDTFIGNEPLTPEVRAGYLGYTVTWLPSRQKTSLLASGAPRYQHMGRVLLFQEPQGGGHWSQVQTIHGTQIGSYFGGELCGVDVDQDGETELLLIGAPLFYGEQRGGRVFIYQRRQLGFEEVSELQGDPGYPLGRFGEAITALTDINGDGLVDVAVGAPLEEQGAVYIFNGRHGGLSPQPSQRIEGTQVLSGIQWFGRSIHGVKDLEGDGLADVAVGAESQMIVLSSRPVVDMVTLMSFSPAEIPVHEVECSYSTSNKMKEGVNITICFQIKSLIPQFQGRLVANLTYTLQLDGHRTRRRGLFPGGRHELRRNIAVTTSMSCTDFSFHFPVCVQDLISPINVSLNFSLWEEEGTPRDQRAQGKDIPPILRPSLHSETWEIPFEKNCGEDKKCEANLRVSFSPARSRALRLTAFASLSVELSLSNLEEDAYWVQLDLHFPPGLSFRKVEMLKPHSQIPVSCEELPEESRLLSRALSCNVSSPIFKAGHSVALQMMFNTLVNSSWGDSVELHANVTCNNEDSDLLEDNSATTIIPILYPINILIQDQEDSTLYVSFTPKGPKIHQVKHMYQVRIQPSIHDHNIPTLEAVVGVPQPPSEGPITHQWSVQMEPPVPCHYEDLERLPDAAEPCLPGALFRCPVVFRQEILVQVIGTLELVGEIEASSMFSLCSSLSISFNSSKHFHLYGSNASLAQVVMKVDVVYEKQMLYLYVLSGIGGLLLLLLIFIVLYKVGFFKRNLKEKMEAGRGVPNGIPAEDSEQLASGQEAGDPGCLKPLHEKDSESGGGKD
Assay: FACScan, Jurkat cells
Give Var.EC50/HuIgG1 EC50 for every item shown.

Please give the measured Var.EC50/HuIgG1 EC50 for this binder: SerL52Ala variant IgG1 (antibody, V domains shown) VH: EVQLVESGGGLVQPGGSLRLSCAASGYSFTGHWMNWVRQAPGKGLEWVGMIHPSDSETRYNQKFKDRFTISVDKSKNTLYLQMNSLRAEDTAVYYCARGIYFYGTTYFDYWGQGTLVTVSS VL: DIQMTQSPSSLSASVGDRVTITCRASKTISKYLAWYQQKPGKAPKLLIYSGATLQSGVPSRFSGSGSGTDFTLTISSLQPEDFATYYCQQHNEYPLTFGQGTKVEIKR
1.1

Please give the measured Var.EC50/HuIgG1 EC50 for this binder: HisH32Ala variant IgG1 (antibody, V domains shown) VH: EVQLVESGGGLVQPGGSLRLSCAASGYSFTGAWMNWVRQAPGKGLEWVGMIHPSDSETRYNQKFKDRFTISVDKSKNTLYLQMNSLRAEDTAVYYCARGIYFYGTTYFDYWGQGTLVTVSS VL: DIQMTQSPSSLSASVGDRVTITCRASKTISKYLAWYQQKPGKAPKLLIYSGSTLQSGVPSRFSGSGSGTDFTLTISSLQPEDFATYYCQQHNEYPLTFGQGTKVEIK
2.3

Please give the measured Var.EC50/HuIgG1 EC50 for this binder: ThrL53Ala variant IgG1 (antibody, V domains shown) VH: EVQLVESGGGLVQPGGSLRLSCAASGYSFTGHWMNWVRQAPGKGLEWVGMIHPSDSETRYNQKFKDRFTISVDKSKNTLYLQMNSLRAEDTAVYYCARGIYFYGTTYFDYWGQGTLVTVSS VL: DIQMTQSPSSLSASVGDRVTITCRASKTISKYLAWYQQKPGKAPKLLIYSGSALQSGVPSRFSGSGSGTDFTLTISSLQPEDFATYYCQQHNEYPLTFGQGTKVEIKR
0.9
